# Species: Rattus norvegicus
# method: Effect on the uptake amount of [3H]choline in the hippocampal synaptosomes of AF64A-treated rats at 10e-6 M
# Format: functional, organism-based
# condition.details: Hippocampus
endpoint: HACU improvement (%)
Entry rule: numbers only, all in %.

Q: What HACU improvement value was documented for this compound, CCCC(=O)Nc1c2c(nc3ccsc13)CCCC2 ?
Result: 4

Q: // query HACU improvement value for entry CCCC(=O)Nc1c2c(nc3ccccc13)CCN(C(=O)c1ccccc1)C2
Result: 0

Q: // query HACU improvement value for entry Cc1oc2nc3c(c(NC(=O)Cn4ccnc4)c2c1C)CCCC3
Result: 4

Q: Name the recorded HACU improvement for CCCC(=O)Nc1c2c(nc3cc(F)ccc13)CCCC2 .
Result: 3

Q: Given the compound CCCC(=O)Nc1c2c(nc3ccccc13)C1CCN2CC1 , what is its reported HACU improvement?
Result: 7

Q: Recorded HACU improvement of O=C(CN1CCCC1=O)Nc1c2c(nc3ccccc13)CCCC2 , please.
Result: 17

Q: Given CCCC(=O)Nc1c2c(nc3ccccc13)CCN(S(=O)(=O)c1ccccc1)C2 , state its recorded HACU improvement.
Result: 10

Q: Data request, read-out HACU improvement, for CNCC(=O)Nc1c2c(nc3oc(C)c(C)c13)CCCC2
Result: 10

Q: // HACU improvement lookup, key: Cc1oc2nc3c(c(NC(=O)CN4CCCC4=O)c2c1C)CCCC3
Result: 72

Q: What value of HACU improvement has been recorded for this entry: CCCC(=O)Nc1c2c(nc3ccccc13)CCC(O)C2 (centres undefined)
Result: 16

Q: Form field: reported HACU improvement of CCCC(=O)Nc1c2c(nc3ncccc13)CCCC2
Result: 10

Q: Would you mind telling me what HACU improvement value was observed for CCCC(=O)Nc1c2c(nc3sc(C)c(C)c13)CCCC2 ?
Result: 11

Q: Consider the compound shown here: CCCC(=O)Nc1c2c(nc3ccccc13)CCN(C)C2 What is its recorded HACU improvement?
Result: 9

Q: Which HACU improvement is reported for this compound? CCCC(=O)Nc1c2c(nc3ccccc13)CCC(c1ccccc1)C2 (centres undefined)
Result: -7

Q: If you can, please state the reported HACU improvement value of CCCC(=O)Nc1c2c(nc3oc(C)c(C)c13)CCCC2 .
Result: 20

Q: Return reported HACU improvement; argument: CCCC(=O)Nc1c2c(nc3sccc13)CCCC2
Result: 1

Q: Form field: reported HACU improvement of CCCC(=O)Nc1c2c(nc3cccc(F)c13)CCCC2
Result: 2

Q: Item under review: CCCC(=O)Nc1c2c(nc3ccccc13)CCC1(CC1)C2 . Reported HACU improvement?
Result: 19

Q: Any idea what its HACU improvement is? The compound is CCCC(=O)Nc1c2c(nc3ccccc13)C1CCC2CC1
Result: -6
